target: VHL Elongin B/C complex (Homo sapiens (Human)); test: Fluorescence Polarization (FP) VHL Binding Assay; conditions: VHL binding, FP assay; geometric mean where more than one measurement
Sequence (P40337 whole entry, looked up): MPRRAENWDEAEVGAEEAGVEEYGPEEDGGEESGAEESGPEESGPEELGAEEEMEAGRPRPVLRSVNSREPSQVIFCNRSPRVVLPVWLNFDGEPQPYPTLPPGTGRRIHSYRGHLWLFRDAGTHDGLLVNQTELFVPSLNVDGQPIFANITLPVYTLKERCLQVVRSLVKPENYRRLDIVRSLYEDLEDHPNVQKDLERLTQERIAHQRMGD
Sequence (Q15370 whole entry partner, looked up): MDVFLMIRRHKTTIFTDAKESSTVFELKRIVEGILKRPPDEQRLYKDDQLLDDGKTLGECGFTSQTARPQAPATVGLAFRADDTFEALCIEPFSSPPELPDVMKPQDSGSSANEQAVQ
Sequence (Q15369 whole entry partner, looked up): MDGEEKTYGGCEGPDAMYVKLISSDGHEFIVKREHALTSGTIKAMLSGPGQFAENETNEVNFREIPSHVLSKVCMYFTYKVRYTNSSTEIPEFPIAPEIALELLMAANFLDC
QUANTITY: IC50 (µM)
The reply should contain only the number, in µM.

Given the entry Cc1ncsc1-c1ccc([C@]2(C)NC(C3C[C@@H](O)CN3C(=O)[C@@H]3CCCN3S(C)(=O)=O)=NC2=O)cc1 (single isomer, unassigned) [Example 112.1] , report its measured IC50. 23.3

Given the entry Cc1cc([C@H](C(=O)N2C[C@H](O)C[C@H]2C2=NOC3(CCCC3)N2)C(C)C)on1 [Example 127.2] , report its measured IC50. 50.8

Given the entry Cc1cc([C@@H](C(=O)N2C[C@H](O)C[C@H]2C2=NOC(C)(c3ccc(Br)cc3)N2)C(C)C)on1 (mixture of isomers) [Example 113.1] , report its measured IC50. 70.6
